- System: SK-OV-3 ovarian
- Measurement Notes: NCI-60 one-dose screen, 48 h (100 = growth as untreated, 0 = no growth, -100 = all killed)
- Experimental Parameters: 10 µM unless noted
Compounds without any hit were thinned out: in the full panel of roughly 83,000, 20% have a hit.
Readout Name: growth (%)
Reply with just the number (in %).

Entry CC(=O)OCC1OC(OC2C(COC(C)=O)OC(n3cc(COc4ccc5ccc(=O)oc5c4)nn3)C(OC(C)=O)C2OC(C)=O)C(OC(C)=O)C(OC(C)=O)C1OC(C)=O (stereo not given) , growth reported as 109

Entry Cc1ccc([C@H]2C(C(=O)c3ccc(Cl)cc3)C3(N[C@@H]2c2ccccc2)C(=O)Nc2ccc(Cl)cc23)cc1 (stereo not given in full) , growth reported as 67.4

Entry COc1ccc2c(c1)c(-c1cc3nc(-c4cn(C)c5ncc(Br)cc45)cc(N)n3n1)cn2C , growth reported as -55.6

Entry CCCCSc1nc(Nc2ccc(C(C)=O)cc2)c(C#N)c(-c2ccc(OC)cc2)n1 , growth reported as 106

Entry c1ccc(-c2csc(Nc3cccc(Nc4nc(-c5ccccc5)cs4)c3)n2)cc1 , growth reported as 97.5

Entry C/C(=N\N=C1/C(=O)Nc2ccccc21)c1ccc2c(c1)Nc1ccccc1S2 , growth reported as 101

Entry CCOC(=O)c1ccc(Nc2nc(NN)nc(-c3ccc(F)cc3)c2C#N)cc1 , growth reported as 116

Entry Cc1ccc(C(=O)NN2C(=O)/C(=C/C=C/c3ccc([N+](=O)[O-])o3)SC2=S)cc1 , growth reported as -78.1

Entry COc1ccc(-c2nc3cc(C)ccc3n2CC(=O)N=Nc2c(O)[nH]c3ccc(Br)cc23)cc1 , growth reported as 35

Entry C=C1CCC2C3(C)COC(c4ccccc4)OC3CCC2(C)C1CC(Sc1ccccc1)C1=CCOC1=O (stereo not given) , growth reported as 120

Entry N/N=C(\N)c1c(N)nc(=S)[nH]c1-c1ccc(Cl)cc1Cl , growth reported as 86.7

Entry O=C(COc1ccc(NC(=O)Nc2ccc(Cl)c(Cl)c2)cc1)N=Nc1c(O)[nH]c2ccc(Cl)cc12 , growth reported as -22.2

Entry O=C1C(=Nc2ccc(F)c(Cl)c2)c2cccc3cccc1c23 , growth reported as 87.4

Entry Cn1cc(-c2nc(N)nnc2-c2c[nH]c3ccc(Br)cc23)c2cccnc21 , growth reported as 61.8

Entry O=C(CCN1C(=O)/C(=C/c2ccc(F)cc2)SC1=S)N1CCOCC1 , growth reported as 91.5

Entry COc1ccc(C(=O)/C=C/c2ccc(OC)c(OCc3ccccc3)c2)cc1OC , growth reported as 24.7

Entry Cc1cccc(NC(=O)CN2CCN(c3ncnc4c3cnn4-c3ccccc3)CC2)c1 , growth reported as 99.7

Entry COC(=O)/C=C/c1cccc2c1C(=O)NC(C)(c1cc3ccccc3oc1=O)N2 (stereo not given) , growth reported as 41.7

Entry Nc1n[nH]c2cccc(C#Cc3cccc(NC(=O)c4cccc(Cl)c4)c3)c12 , growth reported as 15.7

Entry C=C1CC[C@@H]2[C@]3(C)COC(c4cn(-c5ccccc5)nc4-c4ccccc4)O[C@@H]3CC[C@@]2(C)[C@@H]1C/C=C1/C(=O)OC[C@H]1O (stereo not given in full) , growth reported as 12.6

Entry CC1(C)CC[C@]2(C(=O)O)CC[C@]3(C)C(=CCC4[C@@]5(C)C[C@@H](O)[C@@H]6OC(c7cccc(Br)c7)OC[C@@]6(C)C5CC[C@]43C)C2C1 (stereo not given in full) , growth reported as 101

Entry O=S(=O)(Nc1cccc(-n2cnc3cc(-c4ccc(O)cc4)ccc32)c1)C1CC1 , growth reported as 35.6

Entry OCC1(CCCc2ccccc2)CCCN(c2nccc3ccccc23)C1 (stereo not given) , growth reported as 57.7

Entry O=C1Nc2cc(Cl)ccc2/C1=C/c1cccc(OCc2ccccn2)c1 , growth reported as 52.1

Entry COc1cc2c3c(n(CCCN4CCC[C@@H]4CO)c(=O)c2cc1OC)-c1cc2c(cc1C3=O)OCO2 , growth reported as 27.1
